Target: T1, Tim3-ECD-His-Biotin (human, UniProt Q8TDQ0 22-202)
T1 construct: also called human Tim3 (ELISA); Biochem Human
Experiment: ELISA, human Tim3; EC50 relative to the sample's max value
outcome-measure: EC50 (ng/mL)
Use ng/mL as the unit, but write only the number.

Record aTim3 0016 MutNQ (antibody, V domains shown) VH: QVTLKESGPGILQPSQTLRLTCSFSGFSLSTSGMSVGWIRQPSGKGLEWLAHIWLNDDVFFNPALKSRLTISKDTSNNQVFLQIASVVTADTATYYCVRANGYLYALDYWGQGTSVTVSS VL: QIVLTQSPAIMSASPGQKVTITCSASSSVQYTQWYQQKLGSSPKLWIYDAFKLAPGVPARFSGSGTGTSYSLTISSMEAEDAASYFCHQWSSYPWTFGGGTKLEIK , field EC50: 7.6
